- System: 648629-189-R-J1-PDC spheroids with HUVEC/MSC, viability;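 further: spheroids exposed to agents for seven days before reading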
- experimental.protocol: Anticancer human tumor 648629-189-R-J1-PDC patient-derived bladder carcinoma cell line growth inhibition [PI3K]
- measurement.conditions: curve of first compound; second compound 0.00316 µM
Please go through the items and note down their IC50.

Below, each entry is followed by its recorded IC50 result.
INSERT INTO measurements (compound, result) VALUES
  ('CCN1CCN(Cc2ccc(Nc3ncc(F)c(-c4cc(F)c5nc(C)n(C(C)C)c5c4)n3)nc2)CC1 + COc1c(OCCCN2CCOCC2)ccc2c3n(c(=NC(=O)c4cnc(N)nc4)nc12)CCN3', '> 1000 nM'),
  ('Cn1ncc(Cl)c1-c1cc(C(=O)NC(CN)Cc2cccc(F)c2)sc1Cl (stereo unspecified) + CC(Nc1ccc2c(c1)OCCn1cc(N3C(=O)OCC3C(F)F)nc1-2)C(N)=O', '> 10000 nM'),
  ('Cn1cnc2c(F)c(Nc3ccc(Br)cc3Cl)c(C(=O)NOCCO)cc21 + COc1c(OCCCN2CCOCC2)ccc2c3n(c(=NC(=O)c4cnc(N)nc4)nc12)CCN3', '> 3000 nM'),
  ('CC1(C)CCC(Nc2ncc(C(F)(F)F)c(-c3c[nH]c4c(P(C)(C)=O)c(C#N)ccc34)n2)CN1 (stereo unspecified) + COc1c(OCCCN2CCOCC2)ccc2c3n(c(=NC(=O)c4cnc(N)nc4)nc12)CCN3', '< 31.6 nM'),
  ('C=CC(=O)N1CCN(c2nc(=O)n(-c3c(C)ccnc3C(C)C)c3nc(-c4c(O)cccc4F)c(F)cc23)C(C)C1 (stereo unspecified) + CC(Nc1ccc2c(c1)OCCn1cc(N3C(=O)OCC3C(F)F)nc1-2)C(N)=O', '> 10000 nM'),
  ('Cn1ncnc1[C@H]1c2n[nH]c(=O)c3cc(F)cc(c23)N[C@@H]1c1ccc(F)cc1 + COc1c(OCCCN2CCOCC2)ccc2c3n(c(=NC(=O)c4cnc(N)nc4)nc12)CCN3', '> 100 nM');

Give one value of IC50 per listed compound.
1. CC(C)NCC(C(=O)N1CCN(c2ncnc3c2C(C)CC3O)CC1)c1ccc(Cl)cc1 (stereo unspecified) + CC(Nc1ccc2c(c1)OCCn1cc(N3C(=O)OCC3C(F)F)nc1-2)C(N)=O
2. C#Cc1c(F)ccc2cc(O)cc(-c3ncc4c(N5CC6CCC(C5)N6)nc(OCC56CCCN5CC(F)C6)nc4c3F)c12 (stereo unspecified) + COc1c(OCCCN2CCOCC2)ccc2c3n(c(=NC(=O)c4cnc(N)nc4)nc12)CCN3
3. CCCS(=O)(=O)Nc1ccc(F)c(C(=O)c2c[nH]c3ncc(-c4ccc(Cl)cc4)cc23)c1F + COc1c(OCCCN2CCOCC2)ccc2c3n(c(=NC(=O)c4cnc(N)nc4)nc12)CCN3

1. 1280 nM
2. > 10000 nM
3. 5390 nM

Give one value of IC50 per listed compound.
1. C#Cc1c(F)ccc2cc(O)cc(-c3ncc4c(N5CC6CCC(C5)N6)nc(OCC56CCCN5CC(F)C6)nc4c3F)c12 (stereo unspecified) + CC(Nc1ccc2c(c1)OCCn1cc(N3C(=O)OCC3C(F)F)nc1-2)C(N)=O
2. CC(C)NCC(C(=O)N1CCN(c2ncnc3c2C(C)CC3O)CC1)c1ccc(Cl)cc1 (stereo unspecified) + COc1c(OCCCN2CCOCC2)ccc2c3n(c(=NC(=O)c4cnc(N)nc4)nc12)CCN3
3. CC(C)n1nc(-c2ccc3oc(N)nc3c2)c2c(N)ncnc21 + CC(Nc1ccc2c(c1)OCCn1cc(N3C(=O)OCC3C(F)F)nc1-2)C(N)=O
4. CC1(C)CCC(Nc2ncc(C(F)(F)F)c(-c3c[nH]c4c(P(C)(C)=O)c(C#N)ccc34)n2)CN1 (stereo unspecified) + CC(Nc1ccc2c(c1)OCCn1cc(N3C(=O)OCC3C(F)F)nc1-2)C(N)=O
5. C[C@@H](NC(=O)c1ncnc(N)c1Cl)c1ncc(C(=O)Nc2cc(C(F)(F)F)c(Cl)cn2)s1 + COc1c(OCCCN2CCOCC2)ccc2c3n(c(=NC(=O)c4cnc(N)nc4)nc12)CCN3
6. C[C@@H](NC(=O)c1ncnc(N)c1Cl)c1ncc(C(=O)Nc2cc(C(F)(F)F)c(Cl)cn2)s1 + CC(Nc1ccc2c(c1)OCCn1cc(N3C(=O)OCC3C(F)F)nc1-2)C(N)=O

> 10000 nM
901 nM
61.3 nM
< 31.6 nM
> 10000 nM
> 10000 nM

Item CC(Cn1ccc(-c2ccc(C#N)c(Cl)c2)n1)NC(=O)c1cc(C(C)O)[nH]n1 (stereo unspecified) + CC(Nc1ccc2c(c1)OCCn1cc(N3C(=O)OCC3C(F)F)nc1-2)C(N)=O with 648629-189-R-J1-PDC spheroids with HUVEC/MSC, viability - IC50?
> 10000 nM
